- Test name: soluble fraction after stress (log2 fold change); higher = more stays soluble; pooled small domains, quantitative proteomics
- Study conditions: stress: pH 4
Tick True if soluble fraction (log2) is -0.02 or greater. Tick False if soluble fraction (log2) is less than -0.02.

Threshold query (soluble fraction (log2) >= -0.02) on "HMNYNEKGEYTRTLTSGSETAVMTYRNFGETLDVALFKNGVQTDSLRLIKSEPGVLYRQSNGQFEKI"
True

Threshold query (soluble fraction (log2) >= -0.02) on "HMQGDHELSQRILSYLSEQGGSSPLTDKASPEEIYRIFRVSKKKYKQALGNLYKSKSIIILADKIQLL"
True

Threshold query (soluble fraction (log2) >= -0.02) on "HMNIKYDFPTNSPLEMMRNLFDSNSQIINDLKDGFAMANSLNEQGLANFFAERIDKHQFWSWQLSASL"
True

Threshold query (soluble fraction (log2) >= -0.02) on "HMDPSKLVEVQEPVSMKALSEGLGIKVTELIATFAFKLKIGGKNINSMLSNDEVELVALDLERNIKVV"
False

Threshold query (soluble fraction (log2) >= -0.02) on "HMTLTIEDGYVNAKLKTTVEGLAEDSTIKVDSIEYTNAGKNDILTVFVEDKPYRVEKYKINIAPEDS"
False

Threshold query (soluble fraction (log2) >= -0.02) on "HMAVNVNGIHLSSQQHEALVSIWRTGRMPEPHAGQKPWLWIQALRRRGLVSGNALRLTDKGRHIVQLLQ"
True

Threshold query (soluble fraction (log2) >= -0.02) on "HMGDITALMPGKVIQIIVKEGQEIKVGDPLIVIESMKMENTISSEVNGTIKSINIQIDDNVQFDQVLFTV"
False

Threshold query (soluble fraction (log2) >= -0.02) on "HMTAEASELRERIRAAMATLPPAQQRVIELAYFEGLTQREIAALLNEPLGTIKTRMRLGMRKLKDVL"
True

Threshold query (soluble fraction (log2) >= -0.02) on "HMGTRTILGIDPGSRKTGFGIIRLDGSRTHYVSSGVIRIPDTALPERLKIIFASLNEIIQQFQPQEV"
True

Threshold query (soluble fraction (log2) >= -0.02) on "HMANADVVLVDLDKEYTVDAAKFHSVVKHSPFNGFAVKGAPVLTIVRGTVVAENGEVVGQPGHSKMVRP"
False

Threshold query (soluble fraction (log2) >= -0.02) on "HMGVPELHKGEIVQAVVEKVLGEGLLRVNLKGMTVEAATSLRLNPGQQLLLRSEGIENGRQVLR"
True

Threshold query (soluble fraction (log2) >= -0.02) on "HMKKITTANPLDINRATLAQLDTLPGIGPVTAERIIAYRSKVGRINSLDELKKISGLGGMKFEEIKPLLRV"
False

Threshold query (soluble fraction (log2) >= -0.02) on "HMFKINNIIVSGLSEKSNLQTSEEIKNILFENIFFIKKDVLFKILEKNNLINSFEIKKIYPDTIEVKIKKT"
False

Threshold query (soluble fraction (log2) >= -0.02) on "HMLTKSVLGNQIKVLRLEKGLSQEEFGAPVDLSRSAVSQIESGQMYPSLESIGKIVKYYSTSWDNLVG"
False

Threshold query (soluble fraction (log2) >= -0.02) on "HMIYKLTLLRDLPEAKAGFDFYLRGGLASHDGEEWFSWVTREPIYARLYWLYVEKREEWVLVEETDI"
False

Threshold query (soluble fraction (log2) >= -0.02) on "HMEDSAKRHQIMDGARRVFMDLGFDGASMNEIARAAGVSKGTLYVYFTDKNRLFEAIVEQESL"
False

Threshold query (soluble fraction (log2) >= -0.02) on "HMIKRETNDNPVDPASLSLGDRVKILTLNQNGEIISLPDEKGLLQVQVGIMKIGVNVSDIMLI"
False
